Data provenance is paper PMC10447463.

# assay: Zeta-potential measurement
# Type: physicochemical
# assay-conditions: category derived from the zeta potential
endpoint: Zeta category ( +1 = if > 4 mV;-1 = if < -4 mV; 0 = -4mV to 4 mV)

# substance, assay-value
records = [
    ("KLKQLL [KM27 / psis14]", "-1 (-1 = if < -4 mV)"),
    ("CKFKFQFW [TM72]", "1 (+1 = if > 4 mV)"),
]

Please examine the following record next.
Noted for QCKFKQFFNM [CK11] : its Zeta category ( +1 = if > 4 mV;-1 = if < -4 mV; 0 = -4mV to 4 mV) reads 1 (+1 = if > 4 mV)

====

# Type: physicochemical
# Design: key: 1 = fibrils present; 0 non-fibrillar structures
# assay-conditions: TEM; 1 = fibrils present, 0 = non-fibrillar
# Fibril values compiled below
// return just the number, without any unit appended

Noted for `KAKQAANMWQ` : its Fibril reads 0

====

# Assay type: physicochemical
# Set-up: key: 1 = fibrils present; 0 non-fibrillar structures
# assay-conditions: Fig S10 panel E
# Fibril values compiled below
// return just the number, without any unit appended

Past entries and their recorded results:
# substance, Fibril
data = [
    ("HIHIQIC", 1),
    ("HGDKCHGDKC", 0),
    ("CHLHLQL", 0),
    ("RGDKIKIQINM", 1),
    ("KIKIQINMWQ", 1),
    ("MKFKFQF", 1),
]

Noted for `KIKIQINM` : its Fibril reads 1

====

# Number of aggregates in 3 * (1330 µm *1330 µm) values compiled below
# assay: Aggregate analysis by widefield fluorescence microscopy
# Assay type: physicochemical
# assay-conditions: Fig S8 panels A, C; 3 fields of 1330 µm x 1330 µm
// return just the number, without any unit appended

Past entries and their recorded results:
# substance, assay-value
measured = [
    ("CKAKAQANMWQ [BL8]", 6.333),
    ("CKFKFQF [BL4]", 128.3),
    ("CSISIQI [TM141]", 123.3),
]

Please examine the following record next.
Noted for KIKIQIN [JGB3] : its Number of aggregates in 3 * (1330 µm *1330 µm) reads 4

====

# assay: Conversion rate (CR) assay with fluorescamine
# Assay type: physicochemical
# assay-conditions: Fig. S7 panel B; conversion rate, fluorescamine assay
One threshold, 90%, splits the recorded CR / % values: lower ones are condition met, equal or higher ones are condition not met.

# substance, discrete-label
records = [
    ("KNERIKNERI", "condition met"),
]

Take the substance `RGDSKIKIQIC` and say whether its CR / % is less than 90%.
condition met

Take the substance `HRRHFRHKITKKK` and say whether its CR / % is less than 90%.
condition met

Take the substance `CKFKFQFNMWQ` and say whether its CR / % is less than 90%.
condition not met

Take the substance `KIKIQINM` and say whether its CR / % is less than 90%.
condition met

Take the substance `KFKFQFFF` and say whether its CR / % is less than 90%.
condition not met

====

# Assay type: physicochemical
# assay-conditions: relative to blank 42.1851851851852 a.u.
endpoint: Tht rel to blank (42.1851851851852)

Past entries and their recorded results:
# substance, Tht rel to blank (42.1851851851852)
rows = [
    ("MKIKIQINM [TM41]", 1.327),
    ("QCKIKIQI [CK3]", 2.039),
    ("CKFKQFFNM [CK14]", 45.97),
]

Noted for CKAKAQA [TM155] : its Tht rel to blank (42.1851851851852) reads 1.227

Noted for CEIEIQINMWQ [TM143] : its Tht rel to blank (42.1851851851852) reads 3.705

Noted for KIKIKIKI [TM13] : its Tht rel to blank (42.1851851851852) reads 3.325

Noted for CEFEFQFNMWQ [TM140] : its Tht rel to blank (42.1851851851852) reads 6.057

Noted for KFKFQFNM [BL6a] : its Tht rel to blank (42.1851851851852) reads 1.202

Noted for CKFKFQFNMWQ [BL2] : its Tht rel to blank (42.1851851851852) reads 2.427

Noted for QCKIKQIINMWQ [reference compound] : its Tht rel to blank (42.1851851851852) reads 3.802

Noted for KFKFQF [JJA6] : its Tht rel to blank (42.1851851851852) reads 1.156

Noted for RGDKIKIQINMC [psis29] : its Tht rel to blank (42.1851851851852) reads 1.396

====

# Assay type: physicochemical
# assay-conditions: ThT fluorescence category; 1 if Rel. ThT >2
# ThT Cat. values compiled below

Past entries and their recorded results:
# substance, ThT Cat.
rows = [
    ("KFKFQFF", "1 (ThT. Cat is 1, if Rel. ThT >2)"),
    ("CKIKIQIRGD", "0 (ThT-inactive (N-Fold <2))"),
    ("KIEIQINM", "0 (ThT-inactive (N-Fold <2))"),
    ("KLKLKLQL", "0 (ThT-inactive (N-Fold <2))"),
    ("CKIKIQINM", "1 (ThT. Cat is 1, if Rel. ThT >2)"),
]

Noted for `HHHHKIKIKIKIWWWW` : its ThT Cat. reads 1 (ThT. Cat is 1, if Rel. ThT >2)

Noted for `KIKIQII` : its ThT Cat. reads 0 (ThT-inactive (N-Fold <2))

Noted for `KIKQII` : its ThT Cat. reads 0 (ThT-inactive (N-Fold <2))

====

# Count Rate values compiled below
# assay: Turbidity, derived count rate of scattered light
# Format: physicochemical
# assay-conditions: derived count rate of scattered light (turbidity)
// return just the number, without any unit appended

Past entries and their recorded results:
# substance, Count Rate
records = [
    ("NMWQKAKAQA", 242.2),
    ("CKIKQII", 74.6),
    ("CEIEIQINMWQ", 1570),
    ("CHLHLQL", 1155),
    ("CKAKAQA", 362.7),
]

Please examine the following record next.
Noted for `QCKFKFQFNMWQ` : its Count Rate reads 1208

====

# Type: physicochemical
# Parameters: key: 1 = fibrils present; 0 non-fibrillar structures
# assay-conditions: Fig S10 panel D
# TEM 2cat values compiled below
// return just the number, without any unit appended

Past entries and their recorded results:
# substance, TEM 2cat
records = [
    ("MDQMDQMDQMDQMDQ", 0),
    ("CHLHLQL", 0),
    ("QCKAKAQANMWQ", 0),
    ("HIHIQIC", 1),
    ("EIEIEIEI", 1),
]

Please examine the following record next.
Noted for `KWKWQW` : its TEM 2cat reads 0

====

# Type: physicochemical
# Parameters: key: 1 = fibrils present; 0 non-fibrillar structures
# assay-conditions: Fig S10 panel D
# Description: For ATR FT–IR spectroscopy measurements, 200 µL of the respective 1 mg/mL PNF solution was lyophilized and the resulting powder used for measurement. All spectra were recorded on a Bruker Tensor 27 spectrometer with a diamond crystal as ATR element (PIKE MiracleTM, spectral resolution 2 cm^-1). Every sample was measured with 64 scans. Data were analyzed with OriginLab software and calculation of β–sheet content was conducted according to a previous report. TEM. […]
# TEM 2cat values compiled below

# substance, assay-value
records = [
    ("QCKAKAQA", 0),
    ("KAKAQANMWQ", 0),
    ("QCKFKQFFNM", 1),
]

Noted for `HHHHEIEIEIEI` : its TEM 2cat reads 0

Noted for `NMWQKFKFQF` : its TEM 2cat reads 1

Noted for `CKFKQFF` : its TEM 2cat reads 0

Noted for `RLRLTLC` : its TEM 2cat reads 1

Noted for `NMWQKAKAQA` : its TEM 2cat reads 1

Noted for `FDPFDPFDP` : its TEM 2cat reads 0

Noted for `CKFKQFFNMWQ` : its TEM 2cat reads 1

Noted for `CEFEFQF` : its TEM 2cat reads 1

====

# assay: Zeta-potential measurement
# Assay type: physicochemical
# assay-conditions: zeta-potential of the peptide assemblies; mean; Figure 3A source data
# Zeta-Potential / mV values compiled below
Give the value, in units of mV, as a plain number.

# substance, endpoint, assay-value
measured = [
    ("KIKIQINMWA", "Zeta-Potential / mV", 14.7),
    ("CKIKIQINMWQ", "Zeta-Potential / mV", 13.87),
    ("CKFKFQFNM", "Zeta-Potential / mV", 15.13),
    ("QCKFKFQFNMWQ", "Zeta-Potential / mV", 21.07),
    ("QCKAKAQANMWQ", "Zeta-Potential / mV", -8.05),
    ("RGDKIKIQINMC", "Zeta-Potential / mV", 12.2),
    ("KVKGVGK", "Zeta-Potential / mV", -12.8),
    ("CEIEIQINMWQ", "Zeta-Potential / mV", -25.8),
    ("KIKIQIC", "Zeta-Potential / mV", 19.93),
    ("RGDKIKIQI", "Zeta-Potential / mV", -0.9),
]

Please examine the following record next.
Noted for `EIEIQINM` : its Zeta-Potential / mV reads -23.33
